# procedure_details: Half life in Sprague Dawley rat at 2 mg/kg, iv measured after 24 hrs
# Format: ADME, organism-based
# experimental_parameters: in vivo
recorded_endpoint: half-life

Item under review: `CC(C)Oc1cc(F)ccc1Nc1ncnc2ccc(-c3ccc(C(=O)N4CCNCC4)cc3)nc12` . Reported half-life? 403 min

---

# procedure_details: Tmax in Sprague Dawley rat at 10 mg/kg, ip measured after 24 hrs
# Format: ADME, organism-based
# experimental_parameters: in vivo
recorded_endpoint: Tmax (min)
The answer is to be given in min; state only the numeric part.

Item under review: `CC(C)Oc1cc(F)ccc1Nc1ncnc2ccc(-c3ccc(C(=O)N4CCNCC4)cc3)nc12` . Reported Tmax? 40.2

---

# target_entity: Serine/threonine-protein kinase B-raf (Homo sapiens)
# Sequence (P15056 whole entry): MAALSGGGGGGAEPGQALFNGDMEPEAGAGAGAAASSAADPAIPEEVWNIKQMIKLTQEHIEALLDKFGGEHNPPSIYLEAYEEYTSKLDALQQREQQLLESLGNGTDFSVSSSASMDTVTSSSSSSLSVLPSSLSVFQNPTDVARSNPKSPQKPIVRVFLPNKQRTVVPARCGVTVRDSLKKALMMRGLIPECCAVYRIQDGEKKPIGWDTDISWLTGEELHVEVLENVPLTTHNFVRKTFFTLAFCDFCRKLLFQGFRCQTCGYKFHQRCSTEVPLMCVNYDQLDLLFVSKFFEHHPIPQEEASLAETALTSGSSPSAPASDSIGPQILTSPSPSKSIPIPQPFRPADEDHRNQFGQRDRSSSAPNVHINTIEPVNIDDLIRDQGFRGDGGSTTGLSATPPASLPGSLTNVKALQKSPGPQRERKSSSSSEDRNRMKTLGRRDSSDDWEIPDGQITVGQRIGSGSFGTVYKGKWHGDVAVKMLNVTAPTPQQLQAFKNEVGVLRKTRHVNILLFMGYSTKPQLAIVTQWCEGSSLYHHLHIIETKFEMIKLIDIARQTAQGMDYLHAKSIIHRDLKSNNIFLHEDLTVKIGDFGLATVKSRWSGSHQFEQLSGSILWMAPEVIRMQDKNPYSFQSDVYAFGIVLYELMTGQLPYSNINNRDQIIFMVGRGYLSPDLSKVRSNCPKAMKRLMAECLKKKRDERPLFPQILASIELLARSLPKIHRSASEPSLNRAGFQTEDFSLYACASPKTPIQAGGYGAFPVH
# procedure_details: Inhibition of recombinant human B-Raf (416 to end residues) using myelin as substrate incubated for 40 mins in presence of [gamma-33P]-ATP by radiometric scintillation counting analysis
recorded_endpoint: IC50 (µM)
The answer is to be given in µM; state only the numeric part.

Item under review: `CC(C)Oc1cc(F)ccc1Nc1ncnc2ccc(-c3ccc(C(=O)N4CCNCC4)cc3)nc12` . Reported IC50? 2.22

---

# target_entity: MAP kinase-interacting serine/threonine-protein kinase 1 (Homo sapiens, UniProt Q9BUB5)
# Sequence (Q9BUB5 whole entry): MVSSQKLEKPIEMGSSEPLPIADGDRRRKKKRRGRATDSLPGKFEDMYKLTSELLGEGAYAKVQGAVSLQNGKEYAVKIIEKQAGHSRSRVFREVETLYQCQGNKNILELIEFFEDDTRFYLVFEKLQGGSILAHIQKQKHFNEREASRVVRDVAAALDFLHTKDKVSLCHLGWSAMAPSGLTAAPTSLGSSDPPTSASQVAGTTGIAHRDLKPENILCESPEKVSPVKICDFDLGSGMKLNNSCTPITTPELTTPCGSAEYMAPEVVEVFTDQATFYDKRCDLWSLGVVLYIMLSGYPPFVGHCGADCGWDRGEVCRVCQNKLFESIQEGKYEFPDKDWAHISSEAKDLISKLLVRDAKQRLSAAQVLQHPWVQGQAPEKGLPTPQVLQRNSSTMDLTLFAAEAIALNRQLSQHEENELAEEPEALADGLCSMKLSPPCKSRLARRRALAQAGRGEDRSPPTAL
# procedure_details: Inhibition of MKN1 (unknown origin) in presence of ATP by HTRF assay
Here the recorded IC50 is given for each entry.

Reference set (4 entries):
chemical_string	reported_result
CN(C)C(=O)c1cccc(C#Cc2ccccc2Nc2ncnc3ccc(Cl)nc23)c1	> 10 µM
CNC(=O)c1oc2ccc(Nc3ncnc4ccc(Cl)nc34)cc2c1C	> 10 µM
Cc1c(C(=O)N2CCOCC2)oc2ccc(Nc3ncnc4ccc(Cl)nc34)cc12	> 10 µM
COC(=O)c1cccc(C#Cc2ccccc2Nc2ncnc3ccc(Cl)nc23)c1	> 10 µM

Below: the item to evaluate.
Item under review: `CNC(=O)c1cccc(C#Cc2ccccc2Nc2ncnc3ccc(Cl)nc23)c1` . Reported IC50? > 10 µM

---

# target_entity: MAP kinase-interacting serine/threonine-protein kinase 2 (Homo sapiens, UniProt Q9HBH9)
# Sequence (Q9HBH9 whole entry): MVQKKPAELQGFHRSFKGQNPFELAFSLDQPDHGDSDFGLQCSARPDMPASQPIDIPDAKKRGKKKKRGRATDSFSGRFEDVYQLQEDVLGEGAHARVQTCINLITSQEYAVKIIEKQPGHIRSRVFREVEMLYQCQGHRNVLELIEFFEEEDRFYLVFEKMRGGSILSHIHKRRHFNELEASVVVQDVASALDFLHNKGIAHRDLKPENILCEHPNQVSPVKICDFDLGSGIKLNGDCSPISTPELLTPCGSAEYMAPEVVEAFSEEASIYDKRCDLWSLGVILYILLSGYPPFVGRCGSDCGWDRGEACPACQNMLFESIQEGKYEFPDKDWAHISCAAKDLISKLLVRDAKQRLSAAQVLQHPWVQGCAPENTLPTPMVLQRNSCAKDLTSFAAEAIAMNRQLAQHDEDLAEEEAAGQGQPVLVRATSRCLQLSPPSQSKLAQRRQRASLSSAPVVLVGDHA
# procedure_details: Inhibition of MKN2 (unknown origin) in presence of ATP by HTRF assay
recorded_endpoint: IC50

chemical_string	target_entity	IC50
CN(C)C(=O)c1cccc(C#Cc2ccccc2Nc2ncnc3ccc(Cl)nc23)c1	MAP kinase-interacting serine/threonine-protein kinase 2 (Homo sapiens, UniProt Q9HBH9)	> 10000 nM
Cc1c(C(=O)N(C)C)oc2ccc(Nc3ncnc4ccc(Cl)nc34)cc12	MAP kinase-interacting serine/threonine-protein kinase 2 (Homo sapiens, UniProt Q9HBH9)	2200 nM

What value of IC50 on MAP kinase-interacting serine/threonine-protein kinase 2 (Homo sapiens, UniProt Q9HBH9) does `O=C(c1cccc(-c2ccc3ncnc(Nc4ccccc4)c3n2)c1)N1CCNCC1` have? 624 nM

What value of IC50 on MAP kinase-interacting serine/threonine-protein kinase 2 (Homo sapiens, UniProt Q9HBH9) does `COc1cc(F)ccc1Nc1ncnc2ccc(-c3ccc(C(=O)N4CCNCC4)cc3)nc12` have? 29 nM

What value of IC50 on MAP kinase-interacting serine/threonine-protein kinase 2 (Homo sapiens, UniProt Q9HBH9) does `O=C(c1cccc(C#Cc2ccccc2Nc2ncnc3ccc(Cl)nc23)c1)N1CCNCC1` have? 5000 nM

What value of IC50 on MAP kinase-interacting serine/threonine-protein kinase 2 (Homo sapiens, UniProt Q9HBH9) does `N#Cc1ccc(Nc2ncnc3ccc(-c4ccc(C(=O)N5CCNCC5)cc4)nc23)cc1` have? 43 nM

What value of IC50 on MAP kinase-interacting serine/threonine-protein kinase 2 (Homo sapiens, UniProt Q9HBH9) does `COC(=O)c1oc2ccc(Nc3ncnc4ccc(Cl)nc34)cc2c1C` have? 4800 nM

What value of IC50 on MAP kinase-interacting serine/threonine-protein kinase 2 (Homo sapiens, UniProt Q9HBH9) does `O=C(c1ccc(-c2ccc3ncnc(Nc4ccccc4F)c3n2)cc1)N1CCNCC1` have? 10 nM

What value of IC50 on MAP kinase-interacting serine/threonine-protein kinase 2 (Homo sapiens, UniProt Q9HBH9) does `O=C(c1ccc(-c2ccc3ncnc(Nc4ccccc4)c3n2)cc1)N1CCNCC1` have? 36 nM

What value of IC50 on MAP kinase-interacting serine/threonine-protein kinase 2 (Homo sapiens, UniProt Q9HBH9) does `CCCNC(=O)c1cccc(C#Cc2ccccc2Nc2ncnc3ccc(Cl)nc23)c1` have? 3900 nM

What value of IC50 on MAP kinase-interacting serine/threonine-protein kinase 2 (Homo sapiens, UniProt Q9HBH9) does `CNC(=O)c1oc2ccc(Nc3ncnc4ccc(Cl)nc34)cc2c1C` have? 2500 nM

Sourced from ChEMBL document CHEMBL4825757
